Reference source: paper PMC8749467

assay: Pharmacokinetics in ICR mice; assay type: in vivo; conditions: mouse, plasma; PO, 10 mg/kg, ICR mice
EXPERIMENTAL_READOUT: half-life (h)
Write the value in h as a bare number.

Query: # lookup: half-life of COc1cc2c(cc1Nc1nc(Nc3ccccc3S(=O)(=O)C(C)C)c3[nH]ccc3n1)N(C(=O)CN(C)C)CC2
Response: 1.53

----------
test: Pharmacokinetics in ICR mice; format: in vivo; settings: mouse, plasma; IV, 60 mg/kg, ICR mice
EXPERIMENTAL_READOUT: AUC(0-t) (ng·h/mL)
Write the value in ng·h/mL as a bare number.

Query: # lookup: AUC(0-t) of COc1cc2c(cc1Nc1nc(Nc3ccccc3S(=O)(=O)C(C)C)c3[nH]ccc3n1)N(C(=O)CN(C)C)CC2
Response: 26200

----------
experiment: Pharmacokinetics in ICR mice; type: in vivo; details: mouse, plasma; IV, 60 mg/kg, ICR mice; read-out: Vz
EXPERIMENTAL_READOUT: Vd (L/kg)
Write the value in L/kg as a bare number.

Query: # lookup: Vd of COc1cc2c(cc1Nc1nc(Nc3ccccc3S(=O)(=O)C(C)C)c3[nH]ccc3n1)N(C(=O)CN(C)C)CC2
Response: 7.71

----------
assay: Pharmacokinetics in ICR mice; type: in vivo; settings: mouse, plasma; IV, 60 mg/kg, ICR mice
EXPERIMENTAL_READOUT: AUC(0-inf) (ng·h/mL)
Write the value in ng·h/mL as a bare number.

Query: # lookup: AUC(0-inf) of COc1cc2c(cc1Nc1nc(Nc3ccccc3S(=O)(=O)C(C)C)c3[nH]ccc3n1)N(C(=O)CN(C)C)CC2
Response: 26400

----------
test: Pharmacokinetics in ICR mice; format: in vivo; conditions: ICR, mouse, blood; IV, 5 mg/kg, 1 h, mice; read-out: Blood drug concentration
EXPERIMENTAL_READOUT: concentration at 1 h

Query: # lookup: concentration at 1 h of COc1cc2c(cc1Nc1nc(Nc3ccccc3S(=O)(=O)C(C)C)c3[nH]ccc3n1)N(C(=O)CN(C)C)CC2 [XMU-MP-5]
Response: 613 ng/mL

----------
assay: Pharmacokinetics in ICR mice; type: in vivo; conditions: mouse, plasma; IV, 5 mg/kg, ICR mice
EXPERIMENTAL_READOUT: AUC(0-t) (ng·h/mL)
Write the value in ng·h/mL as a bare number.

Query: # lookup: AUC(0-t) of COc1cc2c(cc1Nc1nc(Nc3ccccc3S(=O)(=O)C(C)C)c3[nH]ccc3n1)N(C(=O)CN(C)C)CC2 [XMU-MP-5]
Response: 3300

----------
test: Pharmacokinetics in ICR mice; assay type: in vivo; conditions: ICR, mouse, blood; IV, 60 mg/kg, 4 h, mice; read-out: Blood drug concentration
EXPERIMENTAL_READOUT: concentration at 4 h (ng/mL)
Write the value in ng/mL as a bare number.

Query: # lookup: concentration at 4 h of COc1cc2c(cc1Nc1nc(Nc3ccccc3S(=O)(=O)C(C)C)c3[nH]ccc3n1)N(C(=O)CN(C)C)CC2 [XMU-MP-5]
Response: 2580

----------
assay: Pharmacokinetics in ICR mice; format: in vivo; details: mouse, plasma; IV, 5 mg/kg, ICR mice
EXPERIMENTAL_READOUT: half-life (min)
Write the value in min as a bare number.

Query: # lookup: half-life of COc1cc2c(cc1Nc1nc(Nc3ccccc3S(=O)(=O)C(C)C)c3[nH]ccc3n1)N(C(=O)CN(C)C)CC2
Response: 239

----------
test: Pharmacokinetics in ICR mice; type: in vivo; details: mouse, plasma; PO, 10 mg/kg, ICR mice
EXPERIMENTAL_READOUT: Tmax (min)
Write the value in min as a bare number.

Query: # lookup: Tmax of COc1cc2c(cc1Nc1nc(Nc3ccccc3S(=O)(=O)C(C)C)c3[nH]ccc3n1)N(C(=O)CN(C)C)CC2
Response: 30

----------
assay: Pharmacokinetics in ICR mice; type: in vivo; conditions: mouse, plasma; IV, 5 mg/kg, ICR mice
EXPERIMENTAL_READOUT: Cmax (µg/mL)
Write the value in µg/mL as a bare number.

Query: # lookup: Cmax of COc1cc2c(cc1Nc1nc(Nc3ccccc3S(=O)(=O)C(C)C)c3[nH]ccc3n1)N(C(=O)CN(C)C)CC2 [XMU-MP-5]
Response: 4.3

----------
test: Pharmacokinetics in ICR mice; type: in vivo; settings: ICR, mouse, blood; IV, 30 mg/kg, 2 h, mice; read-out: Blood drug concentration
EXPERIMENTAL_READOUT: concentration at 2 h (ng/mL)
Write the value in ng/mL as a bare number.

Query: # lookup: concentration at 2 h of COc1cc2c(cc1Nc1nc(Nc3ccccc3S(=O)(=O)C(C)C)c3[nH]ccc3n1)N(C(=O)CN(C)C)CC2
Response: 2060

----------
experiment: Pharmacokinetics in ICR mice; format: in vivo; settings: mouse, plasma; IV, 30 mg/kg, ICR mice
EXPERIMENTAL_READOUT: AUC(0-inf)
Answer format: value, then unit.

Query: # lookup: AUC(0-inf) of COc1cc2c(cc1Nc1nc(Nc3ccccc3S(=O)(=O)C(C)C)c3[nH]ccc3n1)N(C(=O)CN(C)C)CC2
Response: 13200 ng·h/mL

----------
assay: Pharmacokinetics in ICR mice; assay type: in vivo; conditions: ICR, mouse, blood; IV, 5 mg/kg, 0.083 h, mice; read-out: Blood drug concentration
EXPERIMENTAL_READOUT: concentration at […] (ng/mL)
Write the value in ng/mL as a bare number.

Query: # lookup: concentration at […] of COc1cc2c(cc1Nc1nc(Nc3ccccc3S(=O)(=O)C(C)C)c3[nH]ccc3n1)N(C(=O)CN(C)C)CC2
Response: 4300

----------
assay: Pharmacokinetics in ICR mice; format: in vivo; settings: ICR, mouse, blood; IV, 30 mg/kg, 4 h, mice; read-out: Blood drug concentration
EXPERIMENTAL_READOUT: concentration at 4 h (ng/mL)
Write the value in ng/mL as a bare number.

Query: # lookup: concentration at 4 h of COc1cc2c(cc1Nc1nc(Nc3ccccc3S(=O)(=O)C(C)C)c3[nH]ccc3n1)N(C(=O)CN(C)C)CC2
Response: 688

----------
assay: Pharmacokinetics in ICR mice; assay type: in vivo; details: ICR, mouse, blood; IV, 30 mg/kg, 1 h, mice; read-out: Blood drug concentration
EXPERIMENTAL_READOUT: concentration at 1 h (ng/mL)
Write the value in ng/mL as a bare number.

Query: # lookup: concentration at 1 h of COc1cc2c(cc1Nc1nc(Nc3ccccc3S(=O)(=O)C(C)C)c3[nH]ccc3n1)N(C(=O)CN(C)C)CC2 [XMU-MP-5]
Response: 2990

----------
tested on: EML4-ALK Ba/F3 cells; experiment: Cell survival assay (MTS); conditions: EML4-ALK Ba/F3, 48 h
EXPERIMENTAL_READOUT: IC50 (nM)
Write the value in nM as a bare number.

Query: # returns recorded IC50 (system: EML4-ALK Ba/F3 cells) for C[C@H]1Oc2cc(cnc2N)-c2c(nn(C)c2C#N)CN(C)C(=O)c2ccc(F)cc21
Response: 1.5

----------
test: Pharmacokinetics in ICR mice; assay type: in vivo; details: mouse, plasma; IV, 60 mg/kg, ICR mice
EXPERIMENTAL_READOUT: half-life (h)
Write the value in h as a bare number.

Query: # lookup: half-life of COc1cc2c(cc1Nc1nc(Nc3ccccc3S(=O)(=O)C(C)C)c3[nH]ccc3n1)N(C(=O)CN(C)C)CC2
Response: 4.01

----------
test: Pharmacokinetics in ICR mice; assay type: in vivo; conditions: mouse, plasma; IV, 5 mg/kg, ICR mice; read-out: Vz
EXPERIMENTAL_READOUT: Vd (L/kg)
Write the value in L/kg as a bare number.

Query: # lookup: Vd of COc1cc2c(cc1Nc1nc(Nc3ccccc3S(=O)(=O)C(C)C)c3[nH]ccc3n1)N(C(=O)CN(C)C)CC2
Response: 8.7

----------
assay: Pharmacokinetics in ICR mice; assay type: in vivo; details: ICR, mouse, blood; IV, 60 mg/kg, 0.5 h, mice; read-out: Blood drug concentration
EXPERIMENTAL_READOUT: concentration at 0.5 h (ng/mL)
Write the value in ng/mL as a bare number.

Query: # lookup: concentration at 0.5 h of COc1cc2c(cc1Nc1nc(Nc3ccccc3S(=O)(=O)C(C)C)c3[nH]ccc3n1)N(C(=O)CN(C)C)CC2
Response: 6430

----------
test: Pharmacokinetics in ICR mice; assay type: in vivo; conditions: mouse, plasma; IV, 5 mg/kg, ICR mice; read-out: MRT(0-∞);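 also: drug levels in collected samples measured by LC-MS/MS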
EXPERIMENTAL_READOUT: MRT inf
Answer format: value, then unit.

Query: # lookup: MRT inf of COc1cc2c(cc1Nc1nc(Nc3ccccc3S(=O)(=O)C(C)C)c3[nH]ccc3n1)N(C(=O)CN(C)C)CC2
Response: 1.74 h
